Provenance of the data: patent US20210301000A1

target: DN quality control product recombinant protein (a recombinant antigen produced by the company itself) (dengue virus); assay: AMO sensor, antibody on sensor, antigen in solution
Reported Property: koff (s⁻¹)

INSERT INTO measurements (binder, measurement) VALUES
  ('WT 1-4 (antibody, V domains shown) VH: QVQLQQSGAELVRPGTSVKISCKASGYSFTDYWIGWVKQRPGHGLEWIGDMVPGDIYINYQEKFKGKATLTADTSSNTAYMQLSSLTSEDSAVYFCTNFLTVGGVDYWGRGTSLTVSS VL: DVVMTQTPLTLSVTIGQPASISCKSSQSLLESDGRTYLNWLLQRPGQSPKRLIYLVTKIDSGVPDRFTGSGSVTDFTLKISRVESEDLGVYYCWYGTHFAHTFGAGTKLEVKR', 0.000142),
  ('Mutation 1-25 (antibody, V domains shown) VH: QVQLQQSGAELVRPGTSVKISCKASGYTFTEYWIGWVKQRPGHGLEWIGDMFPGDVYINYQEKFKGKATLTADTSSNTAYMQLSSLTSEDSAVYFCTNFLTLGGLDYWGRGTSLTVSS VL: DVVMTQTPLTLSVTIGQPASISCKSSNSLLDSDGRTYLNWLLQRPGQSPKRLIYLVSKIDSGVPDRFTGSGSVTDFTLKISRVESEDLGVYYCWYGTHFPHTFGAGTKLEVKR', 0.000273),
  ('Mutation 1-28 (antibody, V domains shown) VH: QVQLQQSGAELVRPGTSVKISCKASGYTFTDYWIGWVKQRPGHGLEWIGDMFPGDIYINYNEKFKGKATLTADTSSNTAYMQLSSLTSEDSAVYFCTNFITLGGIDYWGRGTSLTVSS VL: DVVMTQTPLTLSVTIGQPASISCKSSNSLLDSDGRTYLNWLLQRPGQSPKRLIYLVSKIDSGVPDRFTGSGSVTDFTLKISRVESEDLGVYYCWYGTHFPHTFGAGTKLEVKR', 0.000337);
